assay: chemical genetic growth profiling, strain panel (AID 1159580);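 note: tested at 20 µM; growth read once vehicle control cultures reached saturation at 30 °C; 1 = growth at the plate median or of vehicle wells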; conditions: S. cerevisiae deletion strains, growth OD, locus YDL035C, strain GPR1, stronger effect = lower value
Hit rate of the full screen: of about 5,500 compounds, about 2,000 (36%) were called active. About 18% were inconclusive and are not listed. Some of the results follow.
// normalized growth lookup, one value per entry

MOLECULE	normalized growth
NNc1nncc2ccccc12	1.02 (inactive)

Can you share its normalized growth? I mean this molecule: N#CC(O[C@@H]1O[C@H](CO[C@@H]2O[C@H](CO)[C@@H](O)[C@H](O)[C@H]2O)[C@@H](O)[C@H](O)[C@H]1O)c1ccccc1 (stereo not given in full) 1.01 (inactive)

Would you kindly share the measured normalized growth for COc1ccc2c(c1)c(CC(=O)O)c(C)n2C(=O)c1ccc(Cl)cc1 ? 1.02 (inactive)

Look up normalized growth for this molecule: O=C1c2c(O)cccc2Cc2cccc(O)c21 1.02 (inactive)

Find the recorded normalized growth belonging to NC(N)=N/N=C/c1c(Cl)cccc1Cl and report it. 1.02 (inactive)

I am curious: what normalized growth value has been reported for CO[C@@]12[C@@H]3NC3CN1C1=C(C(=O)C(N)=C(C)C1=O)[C@@H]2COC(N)=O (stereo not given in full) ? 1 (inactive)
